// data source = patent US20220389031A1

target: NLRP3 (Homo sapiens); assay: Human whole blood IL-1β release assay (LPS + nigericin, AlphaLisa); assay type: cell-based; set-up: Plate out 80 μl of whole blood containing 1 μg/ml of LPS; from tissue; host or cells: human whole blood from healthy volunteer donors; settings: NLRP3 inhibitory activity, 1 μg/ml LPS, 3 hrs compound, nigericin 10 μM 1 hr, read-out: HWB IC50
Sequence (Q96P20 whole entry): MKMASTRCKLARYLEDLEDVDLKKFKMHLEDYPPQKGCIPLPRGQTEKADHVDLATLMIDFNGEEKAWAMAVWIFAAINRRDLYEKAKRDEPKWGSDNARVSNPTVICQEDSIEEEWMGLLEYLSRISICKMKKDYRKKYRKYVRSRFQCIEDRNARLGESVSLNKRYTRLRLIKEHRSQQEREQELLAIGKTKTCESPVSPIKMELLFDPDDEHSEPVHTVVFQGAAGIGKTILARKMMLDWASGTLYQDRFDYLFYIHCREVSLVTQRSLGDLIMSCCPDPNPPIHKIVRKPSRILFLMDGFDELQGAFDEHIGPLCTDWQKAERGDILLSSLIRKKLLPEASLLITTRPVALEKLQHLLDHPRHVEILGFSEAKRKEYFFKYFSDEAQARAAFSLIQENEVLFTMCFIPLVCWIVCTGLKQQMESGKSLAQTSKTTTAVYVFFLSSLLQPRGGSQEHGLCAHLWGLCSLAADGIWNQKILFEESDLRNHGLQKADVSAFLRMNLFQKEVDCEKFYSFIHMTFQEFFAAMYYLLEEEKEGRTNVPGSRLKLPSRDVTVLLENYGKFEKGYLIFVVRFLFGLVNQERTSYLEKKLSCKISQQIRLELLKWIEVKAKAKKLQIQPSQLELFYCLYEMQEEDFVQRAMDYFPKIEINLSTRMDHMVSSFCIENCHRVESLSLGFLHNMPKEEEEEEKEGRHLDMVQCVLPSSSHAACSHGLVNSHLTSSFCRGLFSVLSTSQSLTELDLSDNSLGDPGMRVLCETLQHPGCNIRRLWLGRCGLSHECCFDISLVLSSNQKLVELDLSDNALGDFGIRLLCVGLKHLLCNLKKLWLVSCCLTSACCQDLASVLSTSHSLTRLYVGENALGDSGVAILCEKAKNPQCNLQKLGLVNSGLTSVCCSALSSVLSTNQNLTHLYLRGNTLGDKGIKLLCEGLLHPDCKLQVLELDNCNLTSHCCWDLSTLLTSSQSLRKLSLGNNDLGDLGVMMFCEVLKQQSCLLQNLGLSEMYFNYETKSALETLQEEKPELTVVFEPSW
Could you please report measured IC50 for the items listed next?

Item: `Cc1ccc(C(C)C)c2c1-c1ccnc(c1)OCC(C)(C)n1cc(F)c(n1)S(=O)(=O)NC(=O)C2` | IC50: 500 to 1000 nM

Item: `CC(C)c1cccc2c1CC(=O)NS(=O)(=O)c1nn(c3ncccc13)C(C)(C)COc1cc-2ccn1` | IC50: 1000 to 5000 nM

Item: `CC(C)c1cccc2c1CC(=O)NS(=O)(=O)c1nn(cc1F)-c1ncccc1COc1cc-2ccn1` | IC50: 1000 to 5000 nM

Item: `CC(C)c1cccc2c1CC(=O)NS(=O)(=O)c1nn(cc1F)C(C)(C)CCOc1cc-2ccn1` | IC50: 1000 to 5000 nM
